Numbers sourced from BindingDB's records for doi:10.1021/jm00164a020.

- measurement.target: Gastrin/cholecystokinin type B receptor (Cavia porcellus)
- experiment.notes: Inhibition of binding of [125I]gastrin to Cholecystokinin type B receptor from guinea pig gastric glands
Field: IC50. Provide a value for each of the molecules that follow.
Give bare numbers, in µM.

// known answers, use as guide
Fill in the blank: the reported IC50 of O=C(O)CC[C@H](NC(=O)c1cc2ccccc2[nH]1)C(=O)N(C1CCCCC1)C1CCCCC1 is ____.
4.1

// next record CCCCCN(CCCCC)C(=O)[C@@H](CCC(=O)O)NC(=O)Nc1cccc(OC)c1
13

State recorded IC50 for all listed molecules.
1. CCCCCN(CCCCC)C(=O)C(CCC(=O)OCc1ccccc1)NC(=O)Nc1ccc(Cl)cc1 (centres undefined)
2. CCCCCN(CCCCC)C(=O)C(CCC(=O)N1CCCC1)NC(=O)Nc1ccc(Cl)cc1 (centres undefined)

[44, 0.43]
